Attribution: ChEMBL document CHEMBL5143511

# ASSAY_OVERVIEW: Terminal half life in ICR mouse at 40 mg/kg, ip administered as vehicle 2 as corn oil suspension measured upto 1440 mins by LC-MS/MS analysis
# Assay type: ADME, organism-based
# MEASUREMENT_PARAMETERS: in vivo, read-out: beta t1/2
MEASURED_PROPERTY: half-life (h)
Numeric answer only, unit h assumed.

Prompt: Reported half-life, compound CN1C(=O)C(CCO[Si](c2ccccc2)(c2ccccc2)C(C)(C)C)COC12C=CC(=O)C=C2 (stereo unspecified) : ____
Completion: 15.9

###

# ASSAY_OVERVIEW: AUCinfinity in ICR mouse at 40 mg/kg, ip administered as vehicle 1 as DMSO/Cremophor EL/ PEG400/ DDW formulation measured upto 1440 mins by LC-MS/MS analysis
# Type: ADME, organism-based
# Design: dose 40 mg/kg, time < 1440 min, route ip
# MEASUREMENT_PARAMETERS: in vivo
MEASURED_PROPERTY: AUC(0-inf) (ng·h/mL)
Numeric answer only, unit ng·h/mL assumed.

Prompt: Reported AUC(0-inf), compound CN1C(=O)C(CCO[Si](c2ccccc2)(c2ccccc2)C(C)(C)C)COC12C=CC(=O)C=C2 (stereo unspecified) : ____
Completion: 6050

###

In this section we review reported Activity values for a set of molecules.
# EXPERIMENTAL_TARGET: N-lysine methyltransferase SMYD2 (Homo sapiens)
# ASSAY_OVERVIEW: Inhibition of SMYD2 (unknown origin) assessed as residual activity at 10 uM using 3H-SAM as substrate incubated for 1 hr by filter binding method relative to control
Please state the value followed by its unit.

Below: 2 molecules and their reported Activity.
CC(C)N1C(=O)C(Cc2cc(C(F)(F)F)ccc2Cl)COC12C=CC(=O)C=C2 (stereo not drawn) :: 27.8%
CC1COC2(C=CC(=O)C=C2)N(C(C)C)C1=O (stereo not drawn) :: 96.5%

Below: the item to evaluate.
Prompt: Entry CC(C)N1C(=O)C(Cc2ccc(C#N)cc2)COC12C=CC(=O)C=C2 (stereo not drawn) , system N-lysine methyltransferase SMYD2 (Homo sapiens): what Activity was measured?
Completion: 80.7%

###

# ASSAY_OVERVIEW: Drug concentration in ICR mouse plasma at 40 mg/kg, ip administered as vehicle 2 as corn oil suspension measured upto 1440 mins by HPLC analysis
# Type: ADME, organism-based
MEASURED_PROPERTY: concentration at 24 h
Please state the value followed by its unit.

Prompt: Reported concentration at 24 h, molecule CN1C(=O)C(CCO[Si](c2ccccc2)(c2ccccc2)C(C)(C)C)COC12C=CC(=O)C=C2 (stereo unspecified) : ____
Completion: 279 ng/mL

###

# ASSAY_OVERVIEW: Tmax in ICR mouse at 40 mg/kg, ip administered as vehicle 2 as corn oil suspension measured upto 1440 mins by LC-MS/MS analysis
# Assay type: ADME, organism-based
# MEASUREMENT_PARAMETERS: in vivo
MEASURED_PROPERTY: Tmax
Please state the value followed by its unit.

Prompt: Reported Tmax, compound CN1C(=O)C(CCO[Si](c2ccccc2)(c2ccccc2)C(C)(C)C)COC12C=CC(=O)C=C2 (stereo unspecified) : ____
Completion: 1.17 h

###

# ASSAY_OVERVIEW: Cmax in ICR mouse at 40 mg/kg, ip administered as vehicle 2 as corn oil suspension measured upto 1440 mins by LC-MS/MS analysis
# Format: ADME, organism-based
# Design: time < 1440 min, dose 40 mg/kg, route ip
# MEASUREMENT_PARAMETERS: in vivo
MEASURED_PROPERTY: Cmax (µg/mL)
Numeric answer only, unit µg/mL assumed.

Prompt: Reported Cmax, compound CN1C(=O)C(CCO[Si](c2ccccc2)(c2ccccc2)C(C)(C)C)COC12C=CC(=O)C=C2 (stereo unspecified) : ____
Completion: 0.301

###

# ASSAY_OVERVIEW: Metabolic stability in mouse liver microsomes assessed as parent compound remaining at 5 uM preincubated for 5 mins with NADPH followed by compound addition and measured after 15 mins by LC-MS/MS analysis
# Type: ADME, Microsome
# MEASUREMENT_PARAMETERS: read-out: Stability
MEASURED_PROPERTY: remaining at 0.25 h, 5 µM (%)
Numeric answer only, unit % assumed.

Prompt: Reported remaining at 0.25 h, 5 µM, compound CN1C(=O)C(CCO[Si](c2ccccc2)(c2ccccc2)C(C)(C)C)COC12C=CC(=O)C=C2 (stereo unspecified) : ____
Completion: 1.22

###

# ASSAY_OVERVIEW: Drug uptake in ICR mouse plasma assessed as time required to reach higher drug level at 40 mg/kg, ip administered as vehicle 1 as DMSO/Cremophor EL/ PEG400/ DDW formulation measured upto 1440 mins by HPLC analysis
# Format: ADME, organism-based
MEASURED_PROPERTY: Tmax (h)
Numeric answer only, unit h assumed.

Prompt: Reported Tmax, molecule CN1C(=O)C(CCO[Si](c2ccccc2)(c2ccccc2)C(C)(C)C)COC12C=CC(=O)C=C2 (stereo unspecified) : ____
Completion: 8

###

# EXPERIMENTAL_TARGET: N-lysine methyltransferase SMYD2 (Homo sapiens)
# ASSAY_OVERVIEW: Inhibition of SMYD2 (unknown origin) assessed as residual activity at 10 uM using 3H-SAM as substrate incubated for 1 hr by filter binding method relative to control
Mark class 1 for reported Activity of 20% or greater; mark class 0 for anything smaller.

Consider the worked cases shown below.
CN1C(=O)C(CCNc2ccc(C(=O)c3ccccc3)cc2)COC12C=CC(=O)C=C2 (stereo unspecified) :: class 1
CN1C(=O)C(CCNc2cc(C(F)(F)F)cc(C(F)(F)F)c2)COC12C=CC(=O)C=C2 (stereo unspecified) :: class 0
CN1C(=O)C(CCNc2ccccc2)COC12C=CC(=O)C=C2 (stereo unspecified) :: class 1

Prompt: Is the recorded value of Activity equal to or greater than 20% for this compound? CN1C(=O)C(CCNc2cc(F)cc(C(F)(F)F)c2)COC12C=CC(=O)C=C2 (stereo unspecified)
Completion: class 1

Prompt: Note, next up: COc1ccc(N2CCCCC2)c(NCCC2COC3(C=CC(=O)C=C3)N(C)C2=O)c1 (stereo unspecified)
Completion: class 0

Prompt: Note, next up: CN1C(=O)C(CCNc2ccc(Cl)c(Cl)c2)COC12C=CC(=O)C=C2 (stereo unspecified)
Completion: class 0

Prompt: Note, next up: CC(C)N1C(=O)C(Cc2cc(C(F)(F)F)cc(C(F)(F)F)c2)COC12C=CC(=O)C=C2 (stereo unspecified)
Completion: class 0

Prompt: Note, next up: CN1C(=O)C(CCNc2ccc(-c3cccs3)cc2)COC12C=CC(=O)C=C2 (stereo unspecified)
Completion: class 0

Prompt: Note, next up: CC(C)N1C(=O)C(Cc2ccccc2CS(=O)(=O)c2ccccc2)COC12C=CC(=O)C=C2 (stereo unspecified)
Completion: class 1

Prompt: Note, next up: CC(C)N1C(=O)C(Cc2cccc(Br)c2)COC12C=CC(=O)C=C2 (stereo unspecified)
Completion: class 1

Prompt: Note, next up: CC(C)N1C(=O)C(Cc2ccc(F)cc2)COC12C=CC(=O)C=C2 (stereo unspecified)
Completion: class 1

###

# ASSAY_OVERVIEW: AUClast in ICR mouse at 40 mg/kg, ip administered as vehicle 1 as DMSO/Cremophor EL/ PEG400/ DDW formulation measured upto 1440 mins by LC-MS/MS analysis
# Type: ADME, organism-based
# Parameters: time < 1440 min, dose 40 mg/kg, route ip
# MEASUREMENT_PARAMETERS: in vivo
MEASURED_PROPERTY: AUC(0-t) at 24 h

Prompt: Reported AUC(0-t) at 24 h, molecule CN1C(=O)C(CCO[Si](c2ccccc2)(c2ccccc2)C(C)(C)C)COC12C=CC(=O)C=C2 (stereo unspecified) : ____
Completion: 5810 ng·h/mL

###

Notes on IC50 obtained with N-lysine methyltransferase SMYD2 (Homo sapiens, UniProt Q9NRG4).
Sequence (Q9NRG4 whole entry): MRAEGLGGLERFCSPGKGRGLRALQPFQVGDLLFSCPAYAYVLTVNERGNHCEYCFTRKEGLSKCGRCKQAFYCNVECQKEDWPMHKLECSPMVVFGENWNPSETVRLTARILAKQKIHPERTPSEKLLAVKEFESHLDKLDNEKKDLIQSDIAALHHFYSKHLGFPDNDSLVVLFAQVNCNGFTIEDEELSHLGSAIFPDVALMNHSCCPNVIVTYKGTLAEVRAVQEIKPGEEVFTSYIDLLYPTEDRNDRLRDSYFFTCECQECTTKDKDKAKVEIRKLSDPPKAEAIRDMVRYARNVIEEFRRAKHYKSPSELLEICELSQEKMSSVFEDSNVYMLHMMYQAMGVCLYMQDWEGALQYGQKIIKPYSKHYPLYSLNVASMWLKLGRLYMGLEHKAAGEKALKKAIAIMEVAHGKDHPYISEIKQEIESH
Numeric answer only, unit µM assumed.

Below: 4 compounds and their reported IC50.
CN1C(=O)C(CCNc2cc(F)cc(C(F)(F)F)c2)COC12C=CC(=O)C=C2 (stereo not given) :: 7.52
CN1C(=O)C(CCNc2ccc(F)cc2)COC12C=CC(=O)C=C2 (stereo not given) :: 11.6
CN1C(=O)C(CCNc2cc(C(F)(F)F)cc(C(F)(F)F)c2)COC12C=CC(=O)C=C2 (stereo not given) :: 2.13
O=C1C=CC2(C=C1)OCC(Cc1cc(C(F)(F)F)cc(C(F)(F)F)c1)C(=O)N2c1ccccc1 (stereo not given) :: 18.5

Prompt: Reported IC50, compound CC(C)N1C(=O)C(Cc2cc(C(F)(F)F)cc(C(F)(F)F)c2)COC12C=CC(=O)C=C2 (stereo not given) : ____
Completion: 2.39

###

Notes on IC50 obtained with N-lysine methyltransferase SMYD2 (Homo sapiens).

Below: 5 compounds and their reported IC50.
C=CCC1COC2(C=CC(=O)C=C2)N(C(C)C)C1=O (stereo unspecified) :: > 20 µM
CC(C)N1C(=O)C(Cc2ccccc2CS(=O)(=O)c2ccccc2)COC12C=CC(=O)C=C2 (stereo unspecified) :: > 20 µM
CN1C(=O)C(CCO[Si](C)(C)C(C)(C)C)COC12C=CC(=O)C=C2 (stereo unspecified) :: > 30 µM
CN1C(=O)C(CCO[Si](c2ccccc2)(c2ccccc2)C(C)(C)C)COC12C=CC(=NNc1ccccc1)C=C2 (stereo unspecified) :: 5.8 µM
CN1C(=O)C(C/C=N/n2c3ccccc3c3ccccc32)COC12C=CC(=O)C=C2 (stereo unspecified) :: 3.06 µM

Below: the item to evaluate.
Prompt: Reported IC50, compound CN1C(=O)C(CCNc2cnc3ccccc3c2)COC12C=CC(=O)C=C2 (stereo unspecified) : ____
Completion: > 20 µM
